# Tested on: MS2 coat protein
# testMethodNotes: apparent Kd, MS2 coat protein; higher = weaker binding; RNA-MaP array
# experimentalParameters: ligand present: flavin mononucleotide; designed as: OFF switch for flavin mononucleotide
reportedProperty: apparent Kd (µM)

monomersequence=UGUGCCUAGUAGAAGGCGCCGACUCGCUCACGGCGAGGAUAUACUACUCAGGGCACAUGAGGAUCACCCAUGUGUGAUUCGUAA reportedproperty="apparent Kd" endpointvalue=0.0231
monomersequence=GAGUCGCGAGGAUAUGGAAUGGACUACAUGAGGAUCACCCAUGUCCUUUCCCUUGUUUGUCCAGAAGGCGCCAUCC reportedproperty="apparent Kd" endpointvalue=0.0244
monomersequence=AGUUACAAUGUCAGGAUAUUGCUCCCACGACGGAACAAGAAGGGACAUGAGGAUCACCCAUGUUAGUCUUCGUC reportedproperty="apparent Kd" endpointvalue=0.00598
monomersequence=CUCCUGGAAGGAUAUGUGUUUCAGGACAUGAGGAUCACCCAUGUAGAACCUCUCUCCCGCACAGAAGGUCCAUUGU reportedproperty="apparent Kd" endpointvalue=0.247

###

# Test system: MS2 coat protein
# testMethodNotes: apparent Kd, MS2 coat protein; higher = weaker binding; RNA-MaP array; theophylline 2 mM where present
# experimentalParameters: designed as: OFF switch for theophylline; no ligand
reportedProperty: apparent Kd (nM)

monomersequence=UAUAUAUAUAUUGAUACCAGCAGAGAAAACAUAUAUCCUAACAUGAGGAUCACCCAUGUAUGCCCUUGGCAGCGAUAUAUAUAUA reportedproperty="apparent Kd" endpointvalue=26
monomersequence=CGUGUCGUAACUGAUACCAGUGUACUGACAUGAGGAUCACCCAUGUUGGGUUUUGUUGUACACCCUUGGCAGCAGAAUCGAUACG reportedproperty="apparent Kd" endpointvalue=76.9
monomersequence=ACAUGAGGAUCACCCAUGUGCCGUCUUGAUACCAGACGCGAAGUAGUCCCUUGGCAGCAAAUACGUGAGGGUCGCGCAUGUGUAA reportedproperty="apparent Kd" endpointvalue=24.1
monomersequence=ACAUGAGGAUCACCCAUGUUCCUCAUUGAUACCAGUGAAUUUAGACGCCCUUGGCAGCGAGUUUUUUUAUAAGAUUUUUUUUUUU reportedproperty="apparent Kd" endpointvalue=626

###

# System: MS2 coat protein
# testMethodNotes: apparent Kd, MS2 coat protein; higher = weaker binding; RNA-MaP array
# experimentalParameters: designed as: ON switch for flavin mononucleotide; no ligand
Reported apparent Kd values for the following sequences.
reportedProperty: apparent Kd (µM)

monomersequence=GUAUUACAUGAGGAUCACCCAUGUGCGCCGCGUCAAGGAUAUGUAUCGUACGUGUAGUAAACAGAAGGUGACGGAU endpointvalue=0.17
monomersequence=CUAAGCUCGGACAAGGAUAUUAAUUACUAGACAUGAGGAUCACCCAUGUCAACAGACUGGAGGAUUAAGAAGGUGAUUGAAAACCC endpointvalue=0.0218
monomersequence=GCAGGACAUGAGGAUCACCCAUGUGAGGGCAGAGGAGGAUAUAACUACCACUAUUGAUCGUUAGAAGGCCUAGAGG endpointvalue=0.04
monomersequence=GUUUCACAUGAGGAUCACCCAUGUCAAUGCACUGUAGGAUAUGGUUGGUUUCCGCAGCGGCCAGAAGGACAAAUAU endpointvalue=0.0512
monomersequence=AUGUAGUCGGUAGGAUAUACGAGUCUGAUAACAGUAGAAGGACCGAGUACGGCUCCGCAGUACAUGAGGAUCACCCAUGUGAUC endpointvalue=0.533
monomersequence=GGACAUUGUCCUAUUCACAUGAGGAUCACCCAUGUCACAACUAGAAGGGAGCGAUAACAAUUUCCUCAGGAUAUAGUUCGCGGC endpointvalue=0.0282
monomersequence=CUGUUACAUGAGGAUCACCCAUGUUUUUGGUUAAGAGGAUAUGGCACAUGGUUAAACGUUCCAGAAGGCUUUGCAC endpointvalue=0.0118
monomersequence=CUACGGACGGAAGGAUAUAUACGGGUGCCCAGUAUAGAAGGUCCAUACAUGAGGAUCACCCAUGUCAUUAAACCUACGGAGGAG endpointvalue=0.145
monomersequence=UUGUAACAUGAGGAUCACCCAUGUAUGAACUAACAAGGAUAUGCGUGAGUCAGAUAAGACGCAGAAGGUGUCAGAU endpointvalue=0.0103
monomersequence=CGUUCAGAUCAUGAUAACAUGAGGAUCACCCAUGUGGAAUAAUAGGAUAUGGAGAACAAAAUUAACCAGAAGGAUUAUAACAAA endpointvalue=0.07
monomersequence=AGUUUGGGCGCAGGAUAUCUUCACAUGAGGAUCACCCAUGUCCAUAAGAUAUUUAUGUCAUUUGGAGAGAAGGGCGGUUGUAAU endpointvalue=0.0551
monomersequence=CUUGAACCAUCACAUGAGGAUCACCCAUGUAGACUAUAAACUGAGGAUAUCACAGCGAGCAGUCAUGAGAAGGCAGAAUGACGG endpointvalue=0.0153
monomersequence=UUGUGUACUCGAGGAUAUAAUGGACUACAUGAGGAUCACCCAUGUAUACGCCCACAGAGCGUCUUUUAGAAGGCGACGCAUCAU endpointvalue=0.0084
monomersequence=CUGUUAAGUAAAGGAUAUCCUCCAACAGCUAGAGGAGAAGGUUACUCCUUAAUCCACAUGAGGAUCACCCAUGUUAGUGUAAGU endpointvalue=0.0115
monomersequence=CGAUGACAUGAGGAUCACCCAUGUUGCGGUAUUCAAGGAUAUCCUGAGUUUUCAAGCAUUGGAGAAGGUGAUUUCG endpointvalue=0.0301
monomersequence=AGUACCGUACGGAAAACAUGAGGAUCACCCAUGUCUAAUUAGAAGGAUAUGCUCUGUAAAUCGACGCAGAAGGUCAGCUAGAAU endpointvalue=0.0225
monomersequence=AUGUCGCAAUGGAAAAGACAUGAGGAUCACCCAUGUCAGCGUAGAAGGACCUUGUCGACUAAUGGGUAGGAUAUACGAGAAUCC endpointvalue=0.00679
monomersequence=UUCAUUCGAACCAAGGAUAUGUGAUAAGUUACAUGAGGAUCACCCAUGUAUCAGUACAUCAACAGACAGAAGGUGGUGCAUAGUCA endpointvalue=0.00714
monomersequence=UAAAACGGAUCAGGAUAUGUGAAACUGAGUGCGUGAACACUCGCCUACAUGAGGAUCACCCAUGUACAGAAGGGAACUACUACA endpointvalue=0.0164
monomersequence=GCCGACCUCACAUGAGGAUCACCCAUGUGCCGGAAACUACUGAGAAGGGCUCUAAUUCCAGGCGAGCAGGAUAUCAUAAAAUAG endpointvalue=0.0174
monomersequence=AACAUGAGGAUCACCCAUGUCACAUACAAGUGGAGUUCUAUGAGAAGGGCGAAACGAAUGAGCACGCAGGAUAUCAGCGAUAAA endpointvalue=0.0135
monomersequence=CUCCCACAUGAGGAUCACCCAUGUAUGAAAAUACAAGGAUAUGGCGUCCUGAUUAGCGGCCCAGAAGGUGUGCUUU endpointvalue=0.114
monomersequence=UGCUUAAGACAGAAGGGCGUUCCGGAUGGUACCGCAGGAUAUGUCAACAUGAGGAUCACCCAUGUUACUAGCUAUGUUUCAAUU endpointvalue=0.00997
monomersequence=AAAACUUAUCAGAAGGAACGCACUCAACCGUUGUUAGGAUAUGAUCACCUAACAUGAGGAUCACCCAUGUUCACAGUAGGAGAC endpointvalue=0.13
monomersequence=AGUGCAAUAUAGAAGGCCCAAACAUGAGGAUCACCCAUGUAGGUGUCACUGGUAGUGAAGGCUCGGGAGGAUAUAUCAUCCACA endpointvalue=0.0329
monomersequence=GACAGACAUGAGGAUCACCCAUGUGAUACAGGCGUAGGAUAUUCGUGAGGAUACAGAAAAGAAGAAGGACGGGAAG endpointvalue=0.0403
monomersequence=GCUGAUCAACCCUAGGAUAUCACCCAUACCACAUGAGGAUCACCCAUGUCGGGUUGCUAUGUGGCUGAGAAGGAGGUGCACUAUAC endpointvalue=0.023
monomersequence=CCUCGAACGGCAGGAUAUAUUGGUCAAAAUUCUAUAGAAGGGCCUCUCCCUGGAACAUGAGGAUCACCCAUGUGCGCACUUGUG endpointvalue=0.0574
monomersequence=CAAUAACAGAAAGGAUAUGGGCUCGAUACAUGAGGAUCACCCAUGUCUCCGUCAACGCUCAGUGCCCAGAAGGUUCCGCAGAAU endpointvalue=0.034

###

# Test system: MS2 coat protein
# testMethodNotes: apparent Kd, MS2 coat protein; higher = weaker binding; RNA-MaP array
# experimentalParameters: ligand present: tryptophan; designed as: ON switch for tryptophan
Would you please tag the item True when its apparent Kd is 40 nM or above, and False when it is below?

monomersequence=UCUGGUAUGACGGCCGCCACUAGAUCGUGAGAAGCCUGCAUACAUGAGGAUCACCCAUGUCUCACUAGGACCGGGUCAUUCCAAU grouplabel=False
monomersequence=GUACCACAGUCGGCCGCCACUAAGUUGUAUUCCAGCAGGACGAAACAUGAGGAUCACCCAUGUCCUAGGACCGGGACUUCCGUCG grouplabel=False
monomersequence=UCUCACAUGAGGAUCACCCAUGUGUGCGGUCGAGGACCGGUACGGCCGCCACUCGAAUCCUUCCGCGAGAAGAUUGUACGACGGC grouplabel=True
monomersequence=CCUGACAUGAGGAUCACCCAUGUGUGAGCACGAGGACCGGUACGGCCGCCACUCGCGUUGCCGGCCGGACUAUCUGGCGAAGUCA grouplabel=False
monomersequence=CCAUGGUUGACGGCCGCCACUCAUUAGUCUUUGAGGUUGGCACAUGAGGAUCACCCAUGUCUGCAGAGGACCGGGUCUCGCCACA grouplabel=True
